Assay: chemical genetic growth profiling, strain panel (AID 1159580);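 also: tested at 20 µM; growth read once vehicle control cultures reached saturation at 30 °C; 1 = growth at the plate median or of vehicle wells; lower values mean less growth of the strain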
Conditions: S. cerevisiae deletion strains, growth OD, locus YIL147C, strain SLN1, hits give low values
The whole screen tested about 5,500 compounds, of which about 2,000 (36%) were called active. Another 18% or so got no clear call; they are omitted. This is one part of the list.
Consider the following compounds; for each one, report its normalized growth.
Please state the value as a number alone, without comment.

In one line, give reported normalized growth of the entry N#Cc1ccc(Oc2sccc2[N+](=O)[O-])cc1 . 0.969

In one line, give reported normalized growth of the entry O=S(=O)(NCc1cc(Cl)cc(Cl)c1)c1cc(C(F)(F)F)cc(C(F)(F)F)c1 . 0.996

In one line, give reported normalized growth of the entry O=S(=O)(Nc1csc(C(F)(F)F)c1-c1ccccc1)c1cc(Br)c(Br)s1 . 0.951

In one line, give reported normalized growth of the entry CNC(=O)Sc1c(-c2ccc(Cl)cc2)nn(C(=O)NC)c1SC . 0.934

In one line, give reported normalized growth of the entry O=[N+]([O-])c1ccsc1Oc1cccc(C(F)(F)F)c1 . 0.979

In one line, give reported normalized growth of the entry CC1CCC(C(C)C)C(N(Cc2ccccc2)C(=O)c2ccccc2)C1 (stereo not drawn) . 0.987

In one line, give reported normalized growth of the entry Cc1noc(C)c1S(=O)(=O)Nc1csc(C(F)(F)F)c1-c1ccccc1 . 0.975

In one line, give reported normalized growth of the entry O=C(Nc1cc(C(F)(F)F)cc(C(F)(F)F)c1)C(Cl)(Cl)Cl . 0.96
